SYSTEM NAME: UniProtKB P12527
Sequence (P12527 whole entry): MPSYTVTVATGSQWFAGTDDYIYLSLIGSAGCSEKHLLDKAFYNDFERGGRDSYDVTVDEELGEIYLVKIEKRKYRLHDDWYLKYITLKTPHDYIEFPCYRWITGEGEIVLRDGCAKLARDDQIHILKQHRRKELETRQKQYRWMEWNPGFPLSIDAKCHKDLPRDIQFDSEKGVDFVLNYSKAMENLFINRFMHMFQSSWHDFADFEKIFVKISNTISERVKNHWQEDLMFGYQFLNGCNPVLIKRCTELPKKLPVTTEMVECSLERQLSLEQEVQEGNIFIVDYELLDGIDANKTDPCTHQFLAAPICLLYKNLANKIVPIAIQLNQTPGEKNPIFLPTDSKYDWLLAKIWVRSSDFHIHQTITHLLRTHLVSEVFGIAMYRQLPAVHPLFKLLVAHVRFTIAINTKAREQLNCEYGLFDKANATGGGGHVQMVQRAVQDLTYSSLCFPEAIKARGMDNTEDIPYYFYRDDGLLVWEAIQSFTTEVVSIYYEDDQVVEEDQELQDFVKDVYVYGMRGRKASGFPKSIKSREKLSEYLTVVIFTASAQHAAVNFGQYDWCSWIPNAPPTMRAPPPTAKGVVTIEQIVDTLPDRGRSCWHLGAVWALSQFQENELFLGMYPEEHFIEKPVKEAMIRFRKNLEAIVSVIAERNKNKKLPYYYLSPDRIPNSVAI
ASSAY OVERVIEW: Inhibitory activity against the production of leukotriene B4 (LTB4) in glycogen-induced peritoneal cells of rat
Format: functional
Measured IC50, listed per entry.
Give your result in nM as a bare value.

Please review the entries below; each comes with its answer.
CCNc1nc2c(C)c(Cc3cccnc3)c(O)c(C)c2s1 | 230
Cc1c(O)c(C)c2sc(N)nc2c1Cc1cccnc1 | 190

Kindly review the next molecule as well.
Prompt: Note down IC50 recorded for Cc1c(O)c(Cc2cccnc2)c2sc(N)nc2c1C.Cl.Cl
Response: 250
